Could you please report measured IC50 for the items listed next?
target: T1, soluble mouse BLyS (mouse, UniProt Q9WU72 127-309); assay: ELISA, soluble mBLyS
T1 construct: europium-labelled in DELFIA; also called mBLyS; mouse BAFF (BLyS)
State just the number; it will be interpreted in pM.

Query: Determine its reported IC50: 1B5 IgG expressed in HEK293 cells (antibody, V domains shown, IgG from HEK293-FreeStyle cells) VH: QVQLQESGPGLVEPSETLSLTCTVSGGSISGRNYYWGWIRQSTGKGLEWIGSIYYSGSTYYNPSLKSRVTISVDTSKNQFSLKLSSVTAADTAVYYCARDLANYDILTGYYRARGAFDIWGQGTMVTVSS VL: QSALTQPASVSGSPGQSITISCTGTSSDVGGYNYVSWYQQHPGKAPKLMIYDVNKRPSGVPDRFSGSKSANTASLTVSGLQAEDEADYYCSSYTAGGNWVFGGGTKLTVLG
Reply: 17000

Query: Determine its reported IC50: 8D12 IgG expressed in HEK293 cells (antibody, V domains shown, IgG from HEK293-FreeStyle cells; also called 8D12 (293)) VH: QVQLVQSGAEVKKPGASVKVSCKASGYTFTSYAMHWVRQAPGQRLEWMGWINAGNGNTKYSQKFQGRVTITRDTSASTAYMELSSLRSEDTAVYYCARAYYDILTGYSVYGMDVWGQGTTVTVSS VL: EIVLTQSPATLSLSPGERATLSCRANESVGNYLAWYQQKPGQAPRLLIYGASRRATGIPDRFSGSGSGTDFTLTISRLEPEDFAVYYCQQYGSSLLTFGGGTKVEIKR
Reply: 160

Query: Determine its reported IC50: 5G10 IgG expressed in HEK293 cells (antibody, V domains shown, IgG from HEK293-FreeStyle cells) VH: QMQLVQSGAEVKKPGASVKVSCKASGYTFTSYAMHWVRQAPGQRLEWMGWINAGNGNTKYSQKFQGRVTITRDTSASTAYMELSSLRSEDTAVYYCAREMAVAGTYYYYGMDVWGQGTTVTVSS VL: DIQLTQSPSTLSASVGDRVTITCRASQSISGWLAWYQQKPGRAPKLLIYKASSLESGVPSRFSGSGSGTDFTLTISSLQPEDIATYYCQQFDNLLLMYTFGQGTKLEIRR
Reply: 51000

Query: Determine its reported IC50: 6C10 IgG expressed in HEK293 cells (antibody, V domains shown, IgG from HEK293-FreeStyle cells; also called 6C10 (293)) VH: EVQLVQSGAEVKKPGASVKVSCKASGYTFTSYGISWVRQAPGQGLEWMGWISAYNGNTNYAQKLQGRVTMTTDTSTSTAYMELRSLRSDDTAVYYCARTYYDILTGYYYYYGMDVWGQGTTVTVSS VL: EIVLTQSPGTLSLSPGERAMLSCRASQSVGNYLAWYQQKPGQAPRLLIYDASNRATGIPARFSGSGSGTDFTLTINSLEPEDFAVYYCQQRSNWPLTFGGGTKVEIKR
Reply: 50

Query: Determine its reported IC50: 9F8 IgG expressed in HEK293 cells (antibody, V domains shown, IgG from HEK293-FreeStyle cells) VH: QVQLQQSGAEVKKPGASVKVSCKASGYTFTSYYMHWVRQAPGQGLEWMGWINAGNGNTKYSQKFQGRVTITRDTSASTAYMELSSLRSEDTAVYYCARDNLSYDILTGYSFGGWFDPWGQGTLVTVSS VL: QSALTQPASVSGSPGQSITISCTGTSSDIGRYNYVSWYQQRPGRAPKVIIYDVSSRPSGVSKRFSASKSGNTASLTISGLQAEDEAVYYCSSYTRITTLYVFGPGTKVTVLG
Reply: 70

Query: Determine its reported IC50: 4A2 IgG expressed in HEK293 cells (antibody, V domains shown, IgG from HEK293-FreeStyle cells) VH: QVQLVQSGGGVVQPGRSLRLSCAASGFTFSSYGMHWVRQAPGKGLEWVAVISHDGSNKYYADSVKGRFTISRDNSKNTLYLQMNSLRAEDTAVYYCAKDRSYYDILTGYYIPYYYGMDVWGQGTTVTVSS VL: QAVLTQPPSASGTPGQKVTISCSGSSSDIGSNNVNWYQQFPGTAPKLLIHSNNLRPSGVPVRFSGSKSGTSASLAISGLQSEDEADYYCSAWDDSVNGVAFGGGTKLTVLG
Reply: 470

Query: Determine its reported IC50: 8A12 IgG expressed in HEK293 cells (antibody, V domains shown, IgG from HEK293-FreeStyle cells) VH: QVQLVQSGGGLVQPGGSLRLSCAASGFTFSSYAMSWVRQAPGKGLEWVSAISGSGGSTYYADSVKGRFTISRDNSKNTLYLQMNSLRAEDTAVYYCAREGQGYDILTGYYTRGYYFDYWGQGTLVTVSS VL: QSALTQPASVSGSPGQSITISCTGTSSDVGGYNYVSWYQQLPGKAPKLMIYEVSKRPSGVPDRFSGSKSGNTASLTISGLQAEDEADYYCSSYAGSSSWVFGGGTKLTVLG
Reply: 50

Query: Determine its reported IC50: 5B7 IgG expressed in HEK293 cells (antibody, V domains shown, also called 5B7 (293); 5B7-HEK293) VH: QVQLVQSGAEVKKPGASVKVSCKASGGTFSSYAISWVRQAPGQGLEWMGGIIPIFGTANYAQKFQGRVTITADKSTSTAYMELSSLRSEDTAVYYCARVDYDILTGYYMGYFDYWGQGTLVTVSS VL: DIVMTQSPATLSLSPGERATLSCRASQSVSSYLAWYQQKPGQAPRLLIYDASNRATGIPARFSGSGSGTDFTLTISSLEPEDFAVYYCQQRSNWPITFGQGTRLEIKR
Reply: 160

Recorded values, source patent US20170101466A1.
